Target: rat RXFP2 (Rattus norvegicus, UniProt F7EMH8)
Sequence (F7EMH8 20-737): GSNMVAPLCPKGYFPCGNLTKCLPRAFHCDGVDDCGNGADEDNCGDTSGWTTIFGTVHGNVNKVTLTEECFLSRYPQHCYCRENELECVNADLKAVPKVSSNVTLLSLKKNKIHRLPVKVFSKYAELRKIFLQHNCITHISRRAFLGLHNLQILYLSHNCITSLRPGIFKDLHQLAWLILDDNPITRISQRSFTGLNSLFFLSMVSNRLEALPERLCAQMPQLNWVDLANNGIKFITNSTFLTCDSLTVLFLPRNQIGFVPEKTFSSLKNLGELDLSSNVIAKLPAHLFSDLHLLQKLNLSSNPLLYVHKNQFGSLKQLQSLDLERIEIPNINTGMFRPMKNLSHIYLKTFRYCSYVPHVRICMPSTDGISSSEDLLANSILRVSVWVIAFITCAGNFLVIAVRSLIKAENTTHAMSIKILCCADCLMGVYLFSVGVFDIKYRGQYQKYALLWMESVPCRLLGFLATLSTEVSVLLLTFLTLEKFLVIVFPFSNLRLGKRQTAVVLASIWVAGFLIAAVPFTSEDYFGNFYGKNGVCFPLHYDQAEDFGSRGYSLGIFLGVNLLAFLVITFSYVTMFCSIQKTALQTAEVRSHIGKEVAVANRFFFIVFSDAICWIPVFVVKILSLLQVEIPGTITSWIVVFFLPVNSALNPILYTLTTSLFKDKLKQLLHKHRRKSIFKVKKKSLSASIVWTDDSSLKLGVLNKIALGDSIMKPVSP
Assay: INSL3-stimulated cAMP assay in HEK293 stably expressing rat RXFP2;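 further: cAMP measured with an HitHunter kit in 384-well plates, 11-point dose–response curves up to 1 µM antibody, four-parameter variable-slope fit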
Conditions: INSL3 EC80-stimulated cAMP, stable expression; N = 2
measurement-kind: HEK293-rat RXFP2 cAMP % Max Response (%)
Answers are plain numbers, in %.

Sample answers from the record:
3F1: RXFP2 monoclonal antibody from hybridoma, recombinantly expressed in a rat IgG2b backbone (antibody, V domains shown) VH: QVQLKESGPGLVAPSQSLSITCTVSGFSLTDYGVSWIRQPPGKGLEWLGVIWGGGSTDYNPALKSRLSISKDNSKSQVFLKMNSLQADDTAMYYCVKHEGYYAMDYWGQGTSVTVSS VL: DIQMTQSPASLSVSVGETVTITCRASENIYSNLAWYQQKQGKSPHLLVYAVTNLADGVPSRFSGSGSGTQYSLKINSLQSEDFGSYYCQHFWGTPYTFGGGTKLEIK
69.7
1F2: RXFP2 monoclonal antibody from hybridoma, recombinantly expressed in a rat IgG2b backbone (antibody, V domains shown) VH: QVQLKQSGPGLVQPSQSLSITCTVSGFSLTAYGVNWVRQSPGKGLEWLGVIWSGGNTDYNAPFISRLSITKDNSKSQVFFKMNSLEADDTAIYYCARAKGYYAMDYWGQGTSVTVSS VL: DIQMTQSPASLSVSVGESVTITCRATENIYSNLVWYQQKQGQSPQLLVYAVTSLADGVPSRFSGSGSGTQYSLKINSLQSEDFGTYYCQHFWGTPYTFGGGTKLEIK
76.1
3F3: RXFP2 monoclonal antibody from hybridoma, recombinantly expressed in a rat IgG2b backbone (antibody, V domains shown) VH: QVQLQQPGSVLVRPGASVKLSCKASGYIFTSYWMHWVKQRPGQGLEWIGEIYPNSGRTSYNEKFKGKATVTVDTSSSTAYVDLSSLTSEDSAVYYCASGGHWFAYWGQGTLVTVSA VL: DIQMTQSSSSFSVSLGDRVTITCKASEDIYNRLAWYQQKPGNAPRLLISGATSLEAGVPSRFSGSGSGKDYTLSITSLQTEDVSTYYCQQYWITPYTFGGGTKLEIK
78.5

Input line: Endpoint output: HEK293-rat RXFP2 cAMP % Max Response of 2D4: RXFP2 monoclonal antibody from hybridoma, recombinantly expressed in a rat IgG2b backbone (antibody, V domains shown) VH: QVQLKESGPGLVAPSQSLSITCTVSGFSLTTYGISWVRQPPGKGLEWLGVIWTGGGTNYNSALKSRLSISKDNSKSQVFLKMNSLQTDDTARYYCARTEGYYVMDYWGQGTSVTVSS VL: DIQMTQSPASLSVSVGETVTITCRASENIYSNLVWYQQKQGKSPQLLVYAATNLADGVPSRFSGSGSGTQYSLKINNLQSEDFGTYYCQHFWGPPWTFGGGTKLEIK . Value?
Output line: 86.8
